System: Tau phosphorylation at Ser396 (pSer396)
TEST_PROTOCOL: Tau phosphorylation assay (pSer396 ELISA / western blot) in SH-SY5Y cells;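 further: EC50 for reduction of Tau pSer396 in lysed cells, measured by colorimetric ELISA or chemiluminescent western blot, both using the same pSer396 antibody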
Assay type: cell-based, human
DETAILS: Homo sapiens; SH-SY5Y cells, overnight (16-18 h) exposure; read-out: pSer396 Tau EC50
QUANTITY_MEASURED: EC50 (nM)

INSERT INTO results (compound_structure, tested_target, qualifier_symbol, endpoint_result) VALUES
  ('CN1CCC(C(=O)Nc2cc3cc(-c4cnc5n4CCNC5)ccc3cn2)CC1', 'Tau phosphorylation at Ser396 (pSer396)', '>', 10000),
  ('Cn1cc(-c2ccc3cnc(NC(=O)C4CCN(CCO)CC4)cc3c2)cn1', 'Tau phosphorylation at Ser396 (pSer396)', '=', 353),
  ('[2H]C([2H])([2H])n1cc(-c2ccc3cnc(NC(=O)CN4CCCCC4)cc3c2)cn1', 'Tau phosphorylation at Ser396 (pSer396)', '=', 592),
  ('Cn1ncc(-c2ccc3cnc(NC(=O)C4CCC(F)(F)CC4)cc3c2)c1CN1CCCCC1', 'Tau phosphorylation at Ser396 (pSer396)', '=', 222);

###

Tested on: Wnt pathway (Sp5-Luc reporter, TCF/LEF binding sites) in SW480 colon carcinoma cells
TEST_PROTOCOL: Screening assay for Wnt activity: Sp5-Luc reporter gene assay;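 further: firefly luciferase luminescence read in stably transduced SW480 cells carrying the Sp5 promoter reporter with eight TCF/LEF sites, compounds given in 0.1% DMSO final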
Assay type: cell-based, human
DETAILS: Homo sapiens; Sp5-Luc reporter, SW480 cells, 36 to 48 hours
pEC50: −log10 of the molar value.
Each entry gets Not met if its pEC50 stays under 6, and Met if its pEC50 is 6 or above.

INSERT INTO results (compound_structure, classification) VALUES
  ('Cc1ncc(-c2ccc3cnc(NC(=O)[C@@H]4CCCO4)cc3c2)n1C', 'Not met'),
  ('O=C(Nc1cc2cc(-c3cncs3)ccc2cn1)C1(F)CCCCC1', 'Not met'),
  ('O=C(Nc1cc2cc(-c3cnn4c3CNCC4)ccc2cn1)C1CCN(CC2(C(F)(F)F)CC2)CC1', 'Not met'),
  ('O=C(Nc1cc2cc(-c3cnn4c3CN(CCF)CC4)ccc2cn1)C1CCC(F)(F)CC1', 'Not met'),
  ('CN1CCC(F)(C(=O)Nc2cc3cc(-c4cnn(C)c4)ccc3cn2)CC1', 'Not met'),
  ('Cn1cc(-c2ccc3cnc(NC(=O)CN4CCN(CCF)CC4)cc3c2)cn1', 'Not met'),
  ('CN1CCN(CC(=O)Nc2cc3cc(-c4cnn(C)c4)ccc3cn2)CC1', 'Not met'),
  ('O=C(Nc1cc2cc(-c3cncs3)ccc2cn1)C1CNC1', 'Not met'),
  ('[2H]C([2H])(C(=O)Nc1cc2cc(-c3nnc(C)s3)ccc2cn1)N1CCOCC1', 'Met'),
  ('Cc1nnc(-c2ccc3cnc(NC(=O)C4(F)CCCCC4)cc3c2)s1', 'Not met'),
  ('COC(=O)[C@H]1CC[C@H](C(=O)Nc2cc3cc(-c4cnn(C)c4)ccc3cn2)CC1', 'Not met'),
  ('Cn1cc(-c2ccc3cnc(NC(=O)C4CCN(S(C)(=O)=O)CC4)cc3c2)cn1', 'Met'),
  ('CCN1CCC(F)(C(=O)Nc2cc3cc(-c4cn(C)nn4)ccc3cn2)CC1', 'Not met'),
  ('CN1CCC(n2cc(-c3ccc4cnc(NC(=O)C5CCCCC5)cc4c3)cn2)CC1', 'Not met'),
  ('CC(C)CN1CCC(C(=O)Nc2cc3cc(-c4cn[nH]c4)ccc3cn2)CC1', 'Met'),
  ('CN1CCC(N2CCC(C(=O)Nc3cc4cc(-c5cn(C)nn5)ccc4cn3)CC2)CC1', 'Met'),
  ('Cc1ncc(-c2ccc3cnc(NC(=O)C4(F)CC4)cc3c2)n1C', 'Not met'),
  ('Cc1nnc(-c2ccc3cnc(NC(=O)CN4C5CCC4CC5)cc3c2)s1', 'Not met'),
  ('O=C(Nc1cc2cc(-c3cnco3)ccc2cn1)[C@H]1CC[C@@H](N2CCOCC2)CC1', 'Not met'),
  ('Cn1cc(-c2ccc3cnc(NC(=O)CN4CC[C@H](F)C4)cc3c2)cn1', 'Not met'),
  ('CN1CCN(CC(=O)Nc2cc3cc(-c4cnn(C)c4)c(F)cc3cn2)CC1', 'Not met'),
  ('Cn1ncc(-c2ccc3cnc(NC(=O)[C@H]4CCCN4)cc3c2)c1CN1CCCCC1', 'Not met'),
  ('CC(C)CN1CCC(F)(C(=O)Nc2cc3cc(-c4cnn(C)c4)ccc3cn2)CC1', 'Not met'),
  ('Cn1cc(-c2ccc3cnc(NC(=O)C4CC5(C4)CN(C(=O)C(F)(F)F)C5)cc3c2)cn1', 'Met'),
  ('O=C(Nc1cc2cc(-c3cnco3)ccc2cn1)C1CCOCC1', 'Not met'),
  ('Cc1ncc(-c2ccc3cnc(NC(=O)CN4CCN(C)CC4)cc3c2)s1', 'Not met'),
  ('Cc1ncc(-c2ccc3cnc(NC(=O)C4CCC(F)(F)CC4)cc3c2)n1C', 'Not met');
